Protocol summary: in vitro
Condition summary: human, microsomes
Value type: half-life at 1 μM (min)
API: value field is a number in min; no unit string.

Prompt: Request the reported half-life at 1 μM associated with COc1ccc(-c2nc(CSc3nc(N)cc(N)n3)c(C)s2)cc1OCCF [Compound 15a]
Response: 16.3

----------
Protocol summary: Pharmacokinetics of DI-39 in plasma and tumor tissue (LC/MS/MS-MRM)
Format: in vivo
Condition summary: mouse, ip; 8 hr after single dose administration, 50 mg/kg intraperitoneal, CEM tumor-bearing NSG mice; read-out: drug present in tumor tissues
Value type: concentration at 8 hr

Prompt: Request the reported concentration at 8 hr associated with CCCc1sc(-c2ccc(OC)c(OCCNS(C)(=O)=O)c2)nc1CSc1nc(N)cc(N)n1
Response: ~15 nM

----------
System tested: dCK in CCRF-CEM cells (Homo sapiens)
Sequence (P27707 whole entry): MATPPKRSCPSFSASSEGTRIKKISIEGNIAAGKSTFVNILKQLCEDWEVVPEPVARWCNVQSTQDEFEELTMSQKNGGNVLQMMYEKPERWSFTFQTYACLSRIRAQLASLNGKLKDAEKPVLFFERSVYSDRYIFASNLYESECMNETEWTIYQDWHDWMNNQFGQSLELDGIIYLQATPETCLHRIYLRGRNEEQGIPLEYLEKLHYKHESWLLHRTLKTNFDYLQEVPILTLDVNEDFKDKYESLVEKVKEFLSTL
Protocol summary: cell-based
Condition summary: IC50, Example 4 list; assay and unit inferred; values correspond to the CEM 3H-dC uptake data of Tables 3 and 7
For each of the molecules below, state its pIC50.
Quick note: pIC50 means taking -log10 of the concentration in moles per liter.

Prompt: Request the reported pIC50 associated with CCCc1sc(-c2ccc(OC)c(OCCO)c2)nc1CSc1cc(N)nc(N)n1
Response: 6.48

Prompt: What about CCCc1sc(-c2ccc(OC)c(OCCOCCOCCSc3nc(N)cc(N)n3)c2)nc1CSc1nc(N)cc(N)n1 ?
Response: 8.32

Prompt: What about COCCOCCOCCOc1cc(-c2nc(CSc3nc(N)cc(N)n3)c(C3CC3)s2)ccc1OC ?
Response: 8.28

Taken from patent US9981961B2.
